tested on: Bcap37; assay: Antiproliferative against human Bcap37 cells assessed as growth inhibition after 72 hrs by MTT assay; type: functional, cell-based; settings: Bcap37, 72 h
Readout Label: pIC50
Lab note: report pIC50 as minus log10 of the concentration in molar units, number only.

[in] Tell me the measured pIC50 of COc1cccc2c1C(=O)c1c(O)c3c(c(O)c1C2=O)C[C@@](O)(C(=O)CO)C[C@@H]3O[C@H]1C[C@H](N)[C@H](O)[C@H](C)O1 , please.
[out] 5.70
